# target or system: SpBzz1-D2
# assay method text: SPOT peptide array binding signal intensity (averaged, normalized) (arbitrary units (background-subtracted, floor 0; scale differs between SH3 domains)); higher = stronger binding of the SH3 domain to the peptide
So I've got a bunch of binders here, and I need their SPOT peptide array binding signal intensity values.

Example binders with recorded SPOT peptide array binding signal intensity:
VTHRLRISIPGITGR = ≤ 0
ALFRLSFFFPLDPAY = 6.5
GKFIPSRPAPKPPSS = 9.5
FSRRQSMDIPSKNRN = 16.8
SRQAIPPPVPNRPGG = 59.5

The following binders each have a reported value; give each one's SPOT peptide array binding signal intensity.
1. PAPPPPPRASRPTPN
2. EQEEIAPSLPSRNSI

[6.5, 1]
